- ASSAY_SYSTEM: Human CD73 (Homo sapiens, UniProt P21589)
- Construct: purchased R&D Systems; host or cells: CHO cells
- Sequence (P21589 27-549): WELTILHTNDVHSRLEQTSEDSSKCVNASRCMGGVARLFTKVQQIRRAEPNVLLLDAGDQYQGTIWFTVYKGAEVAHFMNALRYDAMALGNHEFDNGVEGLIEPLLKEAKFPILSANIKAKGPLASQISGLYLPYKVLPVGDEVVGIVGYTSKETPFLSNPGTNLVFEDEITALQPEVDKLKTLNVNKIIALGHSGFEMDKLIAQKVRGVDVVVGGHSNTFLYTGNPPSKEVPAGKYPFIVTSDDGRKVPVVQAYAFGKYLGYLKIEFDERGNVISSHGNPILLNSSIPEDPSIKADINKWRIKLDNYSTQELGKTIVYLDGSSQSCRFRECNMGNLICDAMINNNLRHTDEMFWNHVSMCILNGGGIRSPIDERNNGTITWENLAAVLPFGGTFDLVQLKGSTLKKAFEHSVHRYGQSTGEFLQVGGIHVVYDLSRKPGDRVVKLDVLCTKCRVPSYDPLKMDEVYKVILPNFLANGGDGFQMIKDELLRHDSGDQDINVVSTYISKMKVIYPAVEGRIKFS
- ASSAY_EXPLANATION: CD73 Enzyme Assay (EnzChek PNP/MESG kinetic readout of AMP hydrolysis)
- Type: biochemical
RECORDED_ENDPOINT: IC50

[[record]]
compound = "C[C@H](Nc1c(C#N)c(Cl)nc2c1ncn2[C@@H]1O[C@H](COP(=O)(O)CP(=O)(O)O)[C@@H](O)[C@H]1O)c1ccc(F)cc1 [Compound 215]"
result = "< 10 nM"


Now take the following compound into account.
So for C[C@@H](Nc1c(C#N)c(Cl)nc2c1ncn2[C@@H]1O[C@H](COP(=O)(O)CP(=O)(O)O)[C@@H](O)[C@H]1O)c1ccc(F)cc1 [Compound 214] , the logged IC50 turned out to be < 10 nM

* * *

- ASSAY_SYSTEM: CD73 on U138 human neuroglioma cells (Homo sapiens)
- Construct: U138 cells were obtained from ATCC and cultured in DMEM with 10% FBS; host or cells: U138 human neuroglioma cells
- ASSAY_EXPLANATION: CD73 Cell-Based Assay (inorganic phosphate from AMP, malachite green)
- RECORDED_CONDITIONS: AMP substrate, 2 hours at 37° C., read-out: CD73 Cell-Based assay IC50
pIC50: −log10 of the molar value.
Reported pIC50 values are given for each entry in this list.

Below, 5 molecules whose answers are already recorded.
[[record]]
molecule = "N#Cc1c(Cl)nc2c(cnn2[C@@H]2O[C@H](COCP(=O)(O)O)[C@@H](O)[C@H]2O)c1NC1CCCC1 [Compound 69]"
result = "> 8.00"

[[record]]
molecule = "N#Cc1c(Cl)nc2c(ccn2[C@@H]2O[C@H](CS(=O)(=O)CP(=O)(O)O)[C@@H](O)[C@H]2O)c1N1CC2CC2C1 (stereo partly shown) [Compound 22]"
result = "> 8.00"

[[record]]
molecule = "N#Cc1c(Cl)nc2c(ccn2[C@@H]2O[C@H](CS(=O)(=O)CP(=O)(O)O)[C@@H](O)[C@H]2O)c1N[C@H]1CCC(F)(F)C1 [Compound 5]"
result = "> 8.00"

[[record]]
molecule = "N#Cc1c(Cl)nc2c(ccn2[C@@H]2O[C@H](CO[C@H](CO)P(=O)(O)O)[C@@H](O)[C@H]2O)c1N1CC2CCCC2C1 (stereo partly shown) [Compound 50]"
result = "> 8.00"

[[record]]
molecule = "C[C@H](Nc1c(C#N)c(Cl)nc2c1ccn2[C@@H]1O[C@H](COP(=O)(O)CP(=O)(O)O)[C@@H](O)[C@H]1O)c1ccc(C#N)cc1 [Compound 223]"
result = "> 8.00"


Per the reported CD73 on U138 human neuroglioma cells (Homo sapiens) data, N#Cc1c(Cl)nc2c(ccn2[C@@H]2O[C@H](COP(=O)(O)CP(=O)(O)O)[C@@H](O)[C@@H]2F)c1N1CCC(F)(F)C1 [Compound 96] has pIC50 of > 8.00

Per the reported CD73 on U138 human neuroglioma cells (Homo sapiens) data, N#Cc1c(Cl)nc2c(c(F)cn2[C@@H]2O[C@H](CS(=O)(=O)CP(=O)(O)O)[C@@H](O)[C@H]2O)c1NC1CC(F)(F)C1 [Compound 162] has pIC50 of > 8.00

Per the reported CD73 on U138 human neuroglioma cells (Homo sapiens) data, C[C@H](Nc1c(C#N)c(Cl)nc2c1ccn2[C@@H]1O[C@H](COCP(=O)(O)O)[C@@H](O)[C@H]1O)c1ccc(F)cc1 [Compound 8] has pIC50 of > 8.00

Per the reported CD73 on U138 human neuroglioma cells (Homo sapiens) data, N#Cc1c(Cl)nc2c(ccn2[C@@H]2O[C@H](COP(=O)(O)CP(=O)(O)O)[C@@H](O)[C@@H]2F)c1NC1CCCC1 [Compound 216] has pIC50 of > 8.00

Per the reported CD73 on U138 human neuroglioma cells (Homo sapiens) data, C[C@H](Nc1c(C#N)c(Cl)nc2c1cnn2[C@@H]1O[C@H](COP(=O)(O)CP(=O)(O)O)[C@@H](O)[C@H]1O)c1ccc(F)cc1 [Compound 247] has pIC50 of > 8.00

Per the reported CD73 on U138 human neuroglioma cells (Homo sapiens) data, N#Cc1nc2c(ccn2[C@@H]2O[C@H](COCP(=O)(O)O)[C@@H](O)[C@H]2O)c(NC2CCCC2)c1Cl [Compound 101] has pIC50 of > 8.00

Per the reported CD73 on U138 human neuroglioma cells (Homo sapiens) data, N#Cc1c(Cl)nc2c(ccn2[C@@H]2O[C@H](CS(=O)(=O)CP(=O)(O)O)[C@@H](O)[C@@H]2F)c1NC1CC(F)(F)C1 [Compound 169] has pIC50 of > 8.00

Per the reported CD73 on U138 human neuroglioma cells (Homo sapiens) data, N#Cc1c(Cl)nc2c(ccn2[C@@H]2O[C@H](CS(=O)(=O)CP(=O)(O)O)[C@@H](O)[C@H]2O)c1N1CC2CCCC2C1 (stereo partly shown) [Compound 21] has pIC50 of > 8.00
